Hey, just so you know, these numbers are from ChEMBL document CHEMBL2150985.

Assignment: determine reported inhibition for the given molecules.
Assay: Antioxidant activity assessed as inhibition of H2O2 radical scavenging activity at 50 ug/mL by spectrophotometric analysis relative to control
Assay type: functional
Numbers only, in %.

Some solved cases for reference:
- line notation: "Cc1c(-c2nnc(-c3ccc(Cl)cc3)o2)sc2ncnc(Nc3ccc(F)cc3)c12"
  inhibition / %: 67.4
- line notation: "Cc1c(-c2nnc(-c3ccccc3)o2)sc2ncnc(Nc3ccc(F)cc3)c12"
  inhibition / %: 69.5
- line notation: "Cc1c(-c2nnc(-c3ccc(Cl)cc3)o2)sc2ncnc(Nc3ccc(F)c(Cl)c3)c12"
  inhibition / %: 64.5

Next up:
*Q* # inhibition lookup, item `Cc1c(-c2nnc(-c3ccccc3)o2)sc2ncnc(Nc3ccc(Cl)cc3)c12`
*A* 63.8

###

Experiment: Antioxidant activity assessed as inhibition of nitric oxide free radical production at 25 ug/mL after 150 mins by Griess method relative to control
Type: functional
Assignment: determine reported inhibition for the given compounds.
Your answer should be a number followed by the unit of measure.

Some solved cases for reference:
- compound: "O=C1O[C@H]([C@@H](O)CO)C(O)=C1O [ASCORBIC ACID]"
  result: "84.7%"
- compound: "Cc1c(-c2nnc(-c3ccc(Cl)cc3)o2)sc2ncnc(Nc3ccc(F)c(Cl)c3)c12"
  result: "64.4%"
- compound: "Cc1c(-c2nnc(-c3ccc(Cl)cc3)o2)sc2ncnc(Nc3ccc(Cl)cc3)c12"
  result: "68.4%"

The following compounds each have a reported value; give each one's inhibition.
1. Cc1c(-c2nnc(-c3ccc(Cl)cc3)o2)sc2ncnc(Nc3ccc(F)cc3)c12
2. Cc1c(-c2nnc(-c3ccccc3)o2)sc2ncnc(Nc3ccc(F)cc3F)c12

*A*
["71.8%", "75.2%"]

###

Experiment: Antioxidant activity assessed as inhibition of H2O2 radical scavenging activity at 50 ug/mL by spectrophotometric analysis relative to control
Assay type: functional
Classification field: Met = inhibition at or over 60%; Not met = inhibition under 60%.

- line notation: "O=C1O[C@H]([C@@H](O)CO)C(O)=C1O"
  label value: "Met"

*Q* Identify whether the reported inhibition of the following molecule is 60% or greater: `Cc1c(-c2nnc(-c3ccc([N+](=O)[O-])cc3)o2)sc2ncnc(Nc3ccc(F)c(Cl)c3)c12`
*A* Not met

*Q* Let us now turn to `Cc1c(-c2nnc(-c3ccc([N+](=O)[O-])cc3)o2)sc2ncnc(Nc3ccc(F)cc3F)c12`
*A* Not met

*Q* Let us now turn to `Cc1c(-c2nnc(-c3ccccc3)o2)sc2ncnc(Nc3ccc(F)c(Cl)c3)c12`
*A* Met

*Q* Let us now turn to `Cc1c(-c2nnc(-c3ccc(Cl)cc3)o2)sc2ncnc(Nc3ccc(F)cc3F)c12`
*A* Met

*Q* Let us now turn to `Cc1c(-c2nnc(-c3ccc(Cl)cc3)o2)sc2ncnc(Nc3ccc(Cl)cc3)c12`
*A* Met

*Q* Let us now turn to `Cc1c(-c2nnc(-c3ccccc3)o2)sc2ncnc(Nc3ccc(F)cc3F)c12`
*A* Met

*Q* Let us now turn to `Cc1c(-c2nnc(-c3ccc([N+](=O)[O-])cc3)o2)sc2ncnc(Nc3ccc(Cl)cc3)c12`
*A* Not met

*Q* Let us now turn to `Cc1c(-c2nnc(-c3ccc([N+](=O)[O-])cc3)o2)sc2ncnc(Nc3ccc(F)cc3)c12`
*A* Not met

###

Test: Antioxidant activity assessed as inhibition of H2O2 radical scavenging activity at 75 ug/mL by spectrophotometric analysis relative to control
Type: functional
recorded metric: inhibition (%)
One number for each entry, in %.

- compound: "Cc1c(-c2nnc(-c3ccc([N+](=O)[O-])cc3)o2)sc2ncnc(Nc3ccc(Cl)cc3)c12"
  reading unit: "%"
  quantitative result: 58.1
- compound: "O=C1O[C@H]([C@@H](O)CO)C(O)=C1O [ASCORBIC ACID]"
  reading unit: "%"
  quantitative result: 82.4
- compound: "Cc1c(-c2nnc(-c3ccc(Cl)cc3)o2)sc2ncnc(Nc3ccc(Cl)cc3)c12"
  reading unit: "%"
  quantitative result: 65.7
- compound: "Cc1c(-c2nnc(-c3ccc(Cl)cc3)o2)sc2ncnc(Nc3ccc(F)cc3F)c12"
  reading unit: "%"
  quantitative result: 74.5
- compound: "Cc1c(-c2nnc(-c3ccccc3)o2)sc2ncnc(Nc3ccc(F)c(Cl)c3)c12"
  reading unit: "%"
  quantitative result: 67.8
- compound: "Cc1c(-c2nnc(-c3ccccc3)o2)sc2ncnc(Nc3ccc(F)cc3)c12"
  reading unit: "%"
  quantitative result: 71.7
- compound: "Cc1c(-c2nnc(-c3ccccc3)o2)sc2ncnc(Nc3ccc(Cl)cc3)c12"
  reading unit: "%"
  quantitative result: 68.2
- compound: "Cc1c(-c2nnc(-c3ccc([N+](=O)[O-])cc3)o2)sc2ncnc(Nc3ccc(F)cc3F)c12"
  reading unit: "%"
  quantitative result: 62.8

Next up:
*Q* # inhibition lookup, item `Cc1c(-c2nnc(-c3ccc(Cl)cc3)o2)sc2ncnc(Nc3ccc(F)c(Cl)c3)c12`
*A* 68.2

###

Assay: Antioxidant activity assessed as inhibition of H2O2 radical scavenging activity at 100 ug/mL by spectrophotometric analysis relative to control
Assay type: functional
recorded metric: inhibition (%)
Give bare numbers, in %.

The following compounds each have a reported value; give each one's inhibition.
1. O=C1O[C@H]([C@@H](O)CO)C(O)=C1O [ASCORBIC ACID]
2. Cc1c(-c2nnc(-c3ccc([N+](=O)[O-])cc3)o2)sc2ncnc(Nc3ccc(Cl)cc3)c12
3. Cc1c(-c2nnc(-c3ccc([N+](=O)[O-])cc3)o2)sc2ncnc(Nc3ccc(F)c(Cl)c3)c12
4. Cc1c(-c2nnc(-c3ccc(Cl)cc3)o2)sc2ncnc(Nc3ccc(F)cc3F)c12

*A*
1. 86.6
2. 63.7
3. 53.6
4. 79.7

###

Assignment: determine reported inhibition for the given compounds.
Assay: Antioxidant activity assessed as inhibition of H2O2 radical scavenging activity at 75 ug/mL by spectrophotometric analysis relative to control
Type: functional

Some solved cases for reference:
- line notation: "Cc1c(-c2nnc(-c3ccc([N+](=O)[O-])cc3)o2)sc2ncnc(Nc3ccc(F)c(Cl)c3)c12"
  inhibition: "50.4%"
- line notation: "Cc1c(-c2nnc(-c3ccc([N+](=O)[O-])cc3)o2)sc2ncnc(Nc3ccc(F)cc3)c12"
  inhibition: "60%"
- line notation: "Cc1c(-c2nnc(-c3ccccc3)o2)sc2ncnc(Nc3ccc(F)cc3F)c12"
  inhibition: "69%"

Next up:
*Q* # inhibition lookup, item `Cc1c(-c2nnc(-c3ccc(Cl)cc3)o2)sc2ncnc(Nc3ccc(F)cc3)c12`
*A* 69.8%

###

Assay: Antioxidant activity assessed as inhibition of nitric oxide free radical production at 25 ug/mL after 150 mins by Griess method relative to control
Assay type: functional
Classification field: Satisfied = inhibition at or over 70%; Not satisfied = inhibition under 70%.

- line notation: "Cc1c(-c2nnc(-c3ccc([N+](=O)[O-])cc3)o2)sc2ncnc(Nc3ccc(F)cc3F)c12"
  label value: "Not satisfied"
- line notation: "Cc1c(-c2nnc(-c3ccccc3)o2)sc2ncnc(Nc3ccc(F)cc3)c12"
  label value: "Satisfied"
- line notation: "Cc1c(-c2nnc(-c3ccc([N+](=O)[O-])cc3)o2)sc2ncnc(Nc3ccc(Cl)cc3)c12"
  label value: "Not satisfied"

Okay, next one:
*Q* Identify whether the reported inhibition of the following molecule is 70% or greater: `Cc1c(-c2nnc(-c3ccc(Cl)cc3)o2)sc2ncnc(Nc3ccc(F)cc3F)c12`
*A* Satisfied

###

Assay: Antioxidant activity assessed as inhibition of nitric oxide free radical production at 25 ug/mL after 150 mins by Griess method relative to control
Assay type: functional
recorded metric: inhibition (%)
One number for each entry, in %.

- line notation: "Cc1c(-c2nnc(-c3ccc([N+](=O)[O-])cc3)o2)sc2ncnc(Nc3ccc(F)cc3)c12"
  recorded metric: "inhibition"
  quantitative result: 62
- line notation: "Cc1c(-c2nnc(-c3ccccc3)o2)sc2ncnc(Nc3ccc(F)c(Cl)c3)c12"
  recorded metric: "inhibition"
  quantitative result: 72.9

*Q* # inhibition lookup, item `Cc1c(-c2nnc(-c3ccc([N+](=O)[O-])cc3)o2)sc2ncnc(Nc3ccc(F)c(Cl)c3)c12`
*A* 53.6

###

Experiment: Antioxidant activity assessed as inhibition of H2O2 radical scavenging activity at 100 ug/mL by spectrophotometric analysis relative to control
Assay type: functional
recorded metric: inhibition (%)
Answers are plain numbers, in %.

- line notation: "Cc1c(-c2nnc(-c3ccc(Cl)cc3)o2)sc2ncnc(Nc3ccc(Cl)cc3)c12"
  inhibition / %: 69.8
- line notation: "Cc1c(-c2nnc(-c3ccccc3)o2)sc2ncnc(Nc3ccc(F)cc3)c12"
  inhibition / %: 74.2
- line notation: "Cc1c(-c2nnc(-c3ccc(Cl)cc3)o2)sc2ncnc(Nc3ccc(F)c(Cl)c3)c12"
  inhibition / %: 71.9

The following compounds each have a reported value; give each one's inhibition.
1. Cc1c(-c2nnc(-c3ccccc3)o2)sc2ncnc(Nc3ccc(Cl)cc3)c12
2. Cc1c(-c2nnc(-c3ccccc3)o2)sc2ncnc(Nc3ccc(F)cc3F)c12
3. Cc1c(-c2nnc(-c3ccc(Cl)cc3)o2)sc2ncnc(Nc3ccc(F)cc3)c12
4. Cc1c(-c2nnc(-c3ccccc3)o2)sc2ncnc(Nc3ccc(F)c(Cl)c3)c12
5. Cc1c(-c2nnc(-c3ccc([N+](=O)[O-])cc3)o2)sc2ncnc(Nc3ccc(F)cc3F)c12
6. Cc1c(-c2nnc(-c3ccc([N+](=O)[O-])cc3)o2)sc2ncnc(Nc3ccc(F)cc3)c12

*A*
1. 71.6
2. 72.5
3. 72.6
4. 70.9
5. 66.2
6. 64.2
